List of Emax values.
studySystem: recombinant human Meningioma Expressed Antigen 5 (MGEA5), also referred to as O-GlcNAcase (OGA) (Homo sapiens, UniProt O60502)
Construct: Full length OGA enzyme was purchased at OriGene (cat #TP322411); purchased OriGene TP322411
Sequence (O60502 1-916): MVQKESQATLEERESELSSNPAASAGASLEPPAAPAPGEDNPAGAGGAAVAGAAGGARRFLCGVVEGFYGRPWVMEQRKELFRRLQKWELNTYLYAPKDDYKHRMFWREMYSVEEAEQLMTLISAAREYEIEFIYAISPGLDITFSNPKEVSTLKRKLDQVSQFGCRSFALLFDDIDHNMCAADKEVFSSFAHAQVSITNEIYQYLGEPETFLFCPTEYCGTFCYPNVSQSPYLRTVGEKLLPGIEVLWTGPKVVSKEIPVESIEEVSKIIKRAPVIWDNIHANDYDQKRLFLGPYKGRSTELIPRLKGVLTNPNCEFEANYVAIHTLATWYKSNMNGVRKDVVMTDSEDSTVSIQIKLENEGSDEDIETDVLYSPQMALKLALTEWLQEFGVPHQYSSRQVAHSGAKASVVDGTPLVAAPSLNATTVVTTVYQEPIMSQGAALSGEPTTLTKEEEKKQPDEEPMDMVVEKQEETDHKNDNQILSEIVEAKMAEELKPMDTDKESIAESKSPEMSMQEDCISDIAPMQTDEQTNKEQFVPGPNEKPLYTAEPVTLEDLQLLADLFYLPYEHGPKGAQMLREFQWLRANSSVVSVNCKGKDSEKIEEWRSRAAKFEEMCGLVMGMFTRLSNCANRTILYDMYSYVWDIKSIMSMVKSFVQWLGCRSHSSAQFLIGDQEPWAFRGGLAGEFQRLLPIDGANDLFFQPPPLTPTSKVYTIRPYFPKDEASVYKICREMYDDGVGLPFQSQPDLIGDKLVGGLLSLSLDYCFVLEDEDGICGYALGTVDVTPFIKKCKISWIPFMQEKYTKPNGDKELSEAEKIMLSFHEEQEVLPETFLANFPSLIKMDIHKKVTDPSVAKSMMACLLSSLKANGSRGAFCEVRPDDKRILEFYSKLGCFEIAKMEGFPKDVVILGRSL
testDescription: OGA biochemical assay (inhibition of FM-GlcNAc hydrolysis, fluorescence)
testSettings: FM-GlcNAc substrate, maximal effect, read-out: Enzymatic Emax (%)
Your answer is read as %, so omit the unit and give the number.

{"columns": ["compound", "uom", "reportedMeasurement"],
 "data": [
  ["Cc1cc(C[C@@H]2CCN(C(C)c3cc4c(cc3F)NCCO4)C2)cc(C)n1 (mixture of isomers)", "%", 99],
  ["COc1cc(C[C@H]2CCN(C(C)c3ccc4c(n3)OCCO4)C2)cc(C(F)(F)F)n1 (some centres unmarked)", "%", 103],
  ["Cc1cc(C[C@H]2CCN(C(C)c3cc4c(cc3F)OCCO4)C2)cc(C)n1 (some centres unmarked)", "%", 102]
]}

Prompt: Which value of Emax has been reported for Cc1cc(O[C@@H]2CCN(C(C)c3nc4c(cc3F)OCCO4)C2)ccn1 (some centres unmarked) in the records?
Completion: 89

Prompt: Which value of Emax has been reported for Cc1cc(OC[C@H]2CCN(C(C)c3ccc4c(n3)OCCO4)C2)cc(C)n1 (some centres unmarked) in the records?
Completion: 97

Prompt: Which value of Emax has been reported for Cc1cc(C[C@@H]2CCN([C@H](C)c3ccc4c(n3)OCCO4)C2)cc(C)n1 (single isomer, unassigned) in the records?
Completion: 100

Prompt: Which value of Emax has been reported for Cc1cc(C[C@@H]2CCN([C@@H](C)c3cc4c(cc3F)OCCO4)C2)cc(C)n1 in the records?
Completion: 101

Prompt: Which value of Emax has been reported for Cc1cc(C[C@H]2CCN(C(C)c3cnc4c(c3)OCCN4)C2)cc(C)n1 (mixture of isomers) in the records?
Completion: 101
